assay: thallium influx changes without GIRK channels – cell-based, HEK-293 rmGlu8, no GIRK, thallium flux, counter-screen for GIRK activator project, confirmation (AID 623868); conditions: thallium flux fluorescence, at 10 µM, actives lie on both sides, codes: 1 enhancer, -1 blocker, 0 none, thallium stimulus containing EC20 glutamate;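 also: extra codes mark interference with 3 for fluorescent and 4 for baseline rise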
In all, about 2,100 compounds went through this assay and about 760 (36%) were called active.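 The calls were made as follows: active = thallium-flux fluorescence traces judged by eye to show enhanced or reduced glutamate response, manual score 1 or -1, so both directions (some results past the limit were not filed as active); inactive = the rest, including fluorescent or raised-baseline compounds.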 Only a sample is shown.
Choose the fitting class; nothing outside active, inactive is accepted.

>  <compound>
CCCOc1nc2c(c(=O)n(C)c(=O)n2C)n1Cc1cccc2ccccc12

>  <classification>
inactive

$$$$
>  <compound>
COC(=O)c1c(NS(=O)(=O)Cc2ccccc2)sc2c1CCCC2

>  <classification>
active

$$$$
>  <compound>
CCOC(=O)N1CCN(c2ccc3nnnn3n2)CC1

>  <classification>
inactive

$$$$
>  <compound>
COc1ccc(NC(=O)COC(=O)CC23CC4CC(CC(C4)C2)C3)c([N+](=O)[O-])c1

>  <classification>
inactive

$$$$
>  <compound>
O=C1c2ccccc2NC(c2ccc(-c3ccc(Br)cc3)o2)N1O (stereo not given)

>  <classification>
active

$$$$

Could you kindly confirm the outcome this assay logged for `CCOC(=O)c1c(NC(=S)Nc2ccccc2)sc2c1CCCCC2` ? active

Could you kindly confirm the outcome this assay logged for COc1ccc(/C=N\NC(=S)SCN2C(=O)C3CCC(C)(C2=O)C3(C)C)cc1 (stereo not given) ? active

Could you kindly confirm the outcome this assay logged for CC12CCC(C(=O)N(CSC(=S)N/N=C\c3ccccc3)C1=O)C2(C)C (stereo not given) ? active

Could you kindly confirm the outcome this assay logged for `COC(=O)c1c(NC(=S)NC(=O)c2ccco2)sc2c1CCCC2` ? inactive

Could you kindly confirm the outcome this assay logged for `O=C(c1ccc(CS(=O)(=O)c2ccc(Br)cc2)o1)N1CCN(c2ncccn2)CC1` ? inactive

* * *

assay: thallium influx changes without GIRK channels – cell-based, HEK-293 rmGlu8, no GIRK, thallium flux, counter-screen for GIRK activator project, confirmation (AID 623868); conditions: thallium flux fluorescence, at 10 µM, actives lie on both sides, codes: 1 enhancer, -1 blocker, 0 none, thallium stimulus containing EC20 glutamate;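 also: extra codes mark interference with 3 for fluorescent and 4 for baseline rise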
Among all 2,100 compounds or so, about 760 (36%) were called active. The list is a sample of the results.
Please provide measured manual score for the entries that follow.
Answers are plain numbers.

Reference set, count: 2
>  <compound>
O=C(Nc1nnc(-c2ccccc2Cl)o1)c1ccc(S(=O)(=O)N2CCCCCC2)cc1

>  <observedResult>
1

$$$$
>  <compound>
O=S(=O)(c1ccc(-c2nnc(SCc3nnc(-c4ccccc4)o3)o2)cc1)N1CCCC1

>  <observedResult>
0

$$$$

Parameter requested: manual score. Apply to each item below.
1. CCOc1ccc(-c2nc(-c3ccc(OC)cc3)no2)cc1OCC
2. CCN(CC)c1ccc2cc(C(=O)NNC(=O)c3ccc(S(=O)(=O)N4CCCCC4)cc3)c(=O)oc2c1
3. COc1ccc(C(=O)NC(=S)N2CCC(C)CC2)cc1

1. 0
2. 0
3. 1

* * *

Please provide measured manual score for the entries that follow.
test: thallium influx changes without GIRK channels – cell-based, HEK-293 rmGlu8, no GIRK, thallium flux, counter-screen for GIRK activator project, confirmation (AID 623868); details: thallium flux fluorescence, at 10 µM, actives lie on both sides, codes: 1 enhancer, -1 blocker, 0 none, thallium stimulus containing EC20 glutamate;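 also: extra codes mark interference with 3 for fluorescent and 4 for baseline rise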
Out of some 2,100 compounds screened, about 760 (36%) were called active. The list is a sample of the results.
Give bare numbers.

Reference set, count: 5
>  <compound>
CC(/C=N/n1c(COc2ccccc2)n[nH]c1=S)=C\c1ccccc1

>  <observedResult>
0

$$$$
>  <compound>
Cc1[nH]n2c(=O)cc(C(C)(C)C)nc2c1-c1ccccc1

>  <observedResult>
1

$$$$
>  <compound>
COc1ccccc1/C=C/C(=O)NC(=S)N(C)C1CCCCC1

>  <observedResult>
1

$$$$
>  <compound>
CCOc1cc(-c2noc(-c3cccnc3)n2)ccc1OC

>  <observedResult>
0

$$$$
>  <compound>
O=c1[nH]c2ccc(Cl)cc2c(=O)n1Cc1ccco1

>  <observedResult>
0

$$$$

Parameter requested: manual score. Apply to each item below.
1. C/C(CC(=O)NCC(C)C)=N\NC(=O)COc1cc(C)c(Br)cc1Br
2. COC(=O)[C@H](Cc1ccccc1)NC(=O)NCCC1=CCCCC1
3. COc1cccc2c1OC[C@@H](CO)[C@H]2N(C)C(=O)Nc1ccccc1
4. Cn1cccc1/C=N/n1c(-c2ccc(C(C)(C)C)cc2)n[nH]c1=S
5. O=c1c2cc(N3CCOCC3)ccc2[nH]c(=S)n1Cc1ccc(Cl)cc1
6. Cc1ccc(-c2n[nH]c(=S)n2/N=C/c2cccs2)cc1
7. CCn1c(-c2cc3c(C(F)(F)F)nn(C)c3s2)n[nH]c1=S

[0, 0, 0, 0, 0, 1, 0]
